# measured target: MAST1, Q9Y2H9
# Sequence (Q9Y2H9 962-1065): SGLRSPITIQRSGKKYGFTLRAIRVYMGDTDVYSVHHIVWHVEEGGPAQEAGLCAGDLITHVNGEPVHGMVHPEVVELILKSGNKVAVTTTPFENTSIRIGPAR
# assay details: holdup assay
# Set-up: key: below the threshold = too weak to quantify, mostly under pKd 3.1 to 4
# condition: plain residues with an end cap or a label only (N-terminal biotin on a linker: ahx)
observed property: pKd

> print(dat)
                         binder  result
1  ADENEQVSAV [RAPGEF6, Q8TEU7]    4.05
2     KDECVIATEV [DLL1, O00548]    4.38
3    KEYDDELTFF [USH1C, Q9Y6N9]    4.52
4    HSATSVHTSV [MTMR1, Q13613]    3.67
5   SKKNELFSNL [NHERF1, O14745]     3.6

With those in mind, consider the next binder.
Would you kindly share the measured pKd for AKPQPVDSWV [ARVCF, O00192] ?
below the threshold
